System: Staphylococcus aureus
experiment.description: microbe, parasite or virus in culture
Type: functional
recorded.conditions: ATCC29213, time 20 hrs
Please provide measured MIC for the entries that follow.
Lab book: enter the figure in µg/mL, no units written.

Respond only with MIC recorded for C=C[C@]1(C)C[C@@H](OC(=O)CSc2nc3c(C)cccc3c(=O)[nH]2)[C@]2(C)[C@H](C)CC[C@]3(CCC(=O)[C@H]32)[C@@H](C)[C@@H]1O 0.125

Respond only with MIC recorded for C=C[C@]1(C)C[C@@H](OC(=O)CSc2nc3c(F)cccc3c(=O)[nH]2)[C@]2(C)[C@H](C)CC[C@]3(CCC(=O)[C@H]32)[C@@H](C)[C@@H]1O 0.063

Respond only with MIC recorded for C=C[C@]1(C)C[C@@H](OC(=O)CN2CCN(c3nc4ccccc4c(=O)[nH]3)CC2)[C@]2(C)[C@H](C)CC[C@]3(CCC(=O)[C@H]32)[C@@H](C)[C@@H]1O 0.125

Respond only with MIC recorded for C=C[C@]1(C)C[C@@H](OC(=O)CSc2nc3ccccc3c(=O)[nH]2)[C@]2(C)[C@H](C)CC[C@]3(CCC(=O)[C@H]32)[C@@H](C)[C@@H]1O 0.25

Respond only with MIC recorded for C=C[C@]1(C)C[C@@H](OC(=O)CN2CCN(C(=O)c3nc4ccccc4c(=O)[nH]3)CC2)[C@]2(C)[C@H](C)CC[C@]3(CCC(=O)[C@H]32)[C@@H](C)[C@@H]1O 0.5

Respond only with MIC recorded for C=C[C@]1(C)C[C@@H](OC(=O)CSc2nc3cc(Cl)ccc3c(=O)[nH]2)[C@]2(C)[C@H](C)CC[C@]3(CCC(=O)[C@H]32)[C@@H](C)[C@@H]1O 0.25

Respond only with MIC recorded for C=C[C@]1(C)C[C@@H](OC(=O)CSc2nc3cccc([N+](=O)[O-])c3c(=O)[nH]2)[C@]2(C)[C@H](C)CC[C@]3(CCC(=O)[C@H]32)[C@@H](C)[C@@H]1O 0.25

Respond only with MIC recorded for C=C[C@]1(C)C[C@@H](OC(=O)CSc2nc3cc(C)ccc3c(=O)[nH]2)[C@]2(C)[C@H](C)CC[C@]3(CCC(=O)[C@H]32)[C@@H](C)[C@@H]1O 0.5

Respond only with MIC recorded for C=C[C@]1(C)C[C@@H](OC(=O)CSc2nc3cccc(OC)c3c(=O)[nH]2)[C@]2(C)[C@H](C)CC[C@]3(CCC(=O)[C@H]32)[C@@H](C)[C@@H]1O 0.25

Respond only with MIC recorded for C=C[C@]1(C)C[C@@H](OC(=O)CSc2nc3cc(F)ccc3c(=O)[nH]2)[C@]2(C)[C@H](C)CC[C@]3(CCC(=O)[C@H]32)[C@@H](C)[C@@H]1O 0.25

Respond only with MIC recorded for C=C[C@]1(C)C[C@@H](OC(=O)CSc2nc3cc(OC)ccc3c(=O)[nH]2)[C@]2(C)[C@H](C)CC[C@]3(CCC(=O)[C@H]32)[C@@H](C)[C@@H]1O 0.25

Respond only with MIC recorded for C=C[C@]1(C)C[C@@H](OC(=O)CSc2nc3c(Br)cccc3c(=O)[nH]2)[C@]2(C)[C@H](C)CC[C@]3(CCC(=O)[C@H]32)[C@@H](C)[C@@H]1O 0.5

Respond only with MIC recorded for C=C[C@]1(C)C[C@@H](OC(=O)CSc2nc3ccc(OC)cc3c(=O)[nH]2)[C@]2(C)[C@H](C)CC[C@]3(CCC(=O)[C@H]32)[C@@H](C)[C@@H]1O 0.125

Respond only with MIC recorded for C=C[C@]1(C)C[C@@H](OC(=O)CSc2nc3c(Cl)cccc3c(=O)[nH]2)[C@]2(C)[C@H](C)CC[C@]3(CCC(=O)[C@H]32)[C@@H](C)[C@@H]1O 0.125

Respond only with MIC recorded for C=C[C@]1(C)C[C@@H](OC(=O)CSc2nc3ncccc3c(=O)[nH]2)[C@]2(C)[C@H](C)CC[C@]3(CCC(=O)[C@H]32)[C@@H](C)[C@@H]1O 2

Respond only with MIC recorded for C=C[C@]1(C)C[C@@H](OC(=O)CSc2nc3sccc3c(=O)[nH]2)[C@]2(C)[C@H](C)CC[C@]3(CCC(=O)[C@H]32)[C@@H](C)[C@@H]1O 0.25

Respond only with MIC recorded for C=C[C@]1(C)C[C@@H](OC(=O)CSc2nc3cccc(C)c3c(=O)[nH]2)[C@]2(C)[C@H](C)CC[C@]3(CCC(=O)[C@H]32)[C@@H](C)[C@@H]1O 0.25

Respond only with MIC recorded for C=C[C@]1(C)C[C@@H](OC(=O)CS[C@@H]2C[C@H]3CC[C@@H](C2)N3C)[C@]2(C)[C@H](C)CC[C@]3(CCC(=O)[C@H]32)[C@@H](C)[C@@H]1O 0.063

Respond only with MIC recorded for C=C[C@]1(C)C[C@@H](OC(=O)CSc2nc3cccc(F)c3c(=O)[nH]2)[C@]2(C)[C@H](C)CC[C@]3(CCC(=O)[C@H]32)[C@@H](C)[C@@H]1O 0.25

Respond only with MIC recorded for C=C[C@]1(C)C[C@@H](OC(=O)CSc2nc3ccc(C)cc3c(=O)[nH]2)[C@]2(C)[C@H](C)CC[C@]3(CCC(=O)[C@H]32)[C@@H](C)[C@@H]1O 0.25
